Exercise: state measured Kb for each of the compounds provided.
# Experimental system: UniProtKB Q9Y5N1
# Test method notes: Histamine-induced inhibition of forskolin- stimulated cAMP accumulation in SK-N-MC cells overexpressing the human Histamine H3 receptor
# Format: functional, cell-based
# Cond: read-out: pA2 (converted)
Answers are plain numbers, in nM.

Known results for compounds:
Given the compound "c1cc(OCCCN2CCCCC2)ccc1CN1CCOCC1" , write its reported Kb.
0.537

Given the compound "c1cc(OCCN2CCCCC2)ccc1CN1CCCCC1" , write its reported Kb.
8.91

Given the compound "CN(C)CCOc1ccc(CN2CCCCC2)cc1" , write its reported Kb.
10.5

Given the compound "c1cc(OCCCN2CCCCC2)ccc1CNC1CCCCC1" , write its reported Kb.
0.195

Shift focus to the following entry.
Given the compound "OC1CCN(Cc2ccc(OCCCN3CCCCC3)cc2)CC1" , write its reported Kb.
0.229

----------
# Experimental system: Histamine H3 receptor (Homo sapiens, UniProt Q9Y5N1)
# Sequence (Q9Y5N1 whole entry): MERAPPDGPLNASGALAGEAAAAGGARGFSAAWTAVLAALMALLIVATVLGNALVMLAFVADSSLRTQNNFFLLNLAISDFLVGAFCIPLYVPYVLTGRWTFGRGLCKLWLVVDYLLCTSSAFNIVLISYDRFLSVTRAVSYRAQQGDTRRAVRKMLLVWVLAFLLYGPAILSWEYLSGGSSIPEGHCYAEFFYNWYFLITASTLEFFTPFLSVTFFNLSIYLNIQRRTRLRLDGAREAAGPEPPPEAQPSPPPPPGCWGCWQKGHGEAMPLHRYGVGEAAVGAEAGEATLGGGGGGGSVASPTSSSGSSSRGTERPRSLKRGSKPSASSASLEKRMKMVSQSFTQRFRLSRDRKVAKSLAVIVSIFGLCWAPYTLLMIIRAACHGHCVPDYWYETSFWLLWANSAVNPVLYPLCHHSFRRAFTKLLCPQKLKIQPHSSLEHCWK
# Test method notes: In vitro binding affinity for human Histamine H3 receptor by displacing N-[3H]-methylhistamine in SK-N-MC cells was determined
Quantity kind: pKi
Give bare numbers, as −log10 of the molar value.

Look at each compound and report its pKi.
1. NC(=O)C1CCN(Cc2ccc(OCCCN3CCCCC3)cc2)CC1
2. OC1CCN(Cc2ccc(OCCCN3CCCCC3)cc2)CC1
3. c1cc(OCCCN2CCCCC2)ccc1CC1CCCCC1

9.02
9.13
7.30

Look at each compound and report its pKi.
1. c1cc(OCCN2CCCCC2)ccc1CN1CCCCC1
2. c1cc(OCCCN2CCCCC2)ccc1CN1CCOCC1
3. CN1CCN(Cc2ccc(OCCCN3CCCCC3)cc2)CC1
4. CCN(CC)CCCOc1ccc(CN2CCCCC2)cc1
5. CN(C)CCOc1ccc(CN2CCCCC2)cc1

[8.05, 9.06, 8.87, 8.91, 8.41]

Look at each compound and report its pKi.
1. c1ccc(CC2CCN(Cc3ccc(OCCCN4CCCCC4)cc3)CC2)cc1
2. c1cc(OCCCC2CCCCC2)ccc1CN1CCCCC1
3. c1ccc2c(c1)CCC2NCc1ccc(OCCCN2CCCCC2)cc1 (configuration not stated)

1. 8.82
2. 6.20
3. 9.08

Given the compound "c1ccc(NCc2ccc(OCCCN3CCCCC3)cc2)cc1" , write its reported pKi.
8.08

----------
# Experimental system: Histamine H3 receptor (Homo sapiens, UniProt Q9Y5N1)
# Test method notes: In vitro binding affinity for human Histamine H3 receptor by displacing N-[3H]-methylhistamine in SK-N-MC cells was determined
Quantity kind: pKi
Numbers only, as −log10 of the molar value.

Known results for molecules:
Given the molecule "c1ccc2c(c1)CCN(Cc1ccc(OCCCN3CCCCC3)cc1)C2" , write its reported pKi.
8.77

Given the molecule "c1cc(OCCCN2CCOCC2)ccc1CN1CCCCC1" , write its reported pKi.
8.64

Given the molecule "c1cc(OCCCN2CCCCC2)ccc1CNC1CCCCC1" , write its reported pKi.
9.29

Given the molecule "CN(C)Cc1ccc(OCCCN2CCCCC2)cc1" , write its reported pKi.
9.03

Shift focus to the following entry.
Given the molecule "CCN(CC)CCOc1ccc(CN2CCCCC2)cc1" , write its reported pKi.
7.30

----------
# Test method notes: stabilit in human liver microsome expressed as Half life
# Assay type: ADME
# Cond: liver microsomes
Quantity kind: half-life

Given the compound "c1cc(OCCCN2CCCCC2)ccc1CN1CCCCC1" , write its reported half-life.
> 24 h
